Data origin: patent US9428542B2

Give TC50 (PM) for every item shown.
Test system: MT-2 cells
test description: Compounds' cytotoxicity assay in MT-2 cells (CellTiter-Glo)
Assay type: cell-based
Set-up: unit not given here
conditions: toxicity in MT-2 cells, 3 days
Numbers only.

{"molecule": "CC(C)C1=C2[C@H]3CC[C@@H]4[C@@]5(C)CC[C@H](OC(=O)CC(C)(C)C(=O)O)C(C)(C)[C@@H]5CC[C@@]4(C)[C@]3(C)CC[C@@]2(Nc2nnc(-c3ccc(Cl)cc3)o2)CC1=O [Compound 141-1]", "TC50 (PM)": 26}

// switching to the query molecule
input: Looking for the measured TC50 (PM) of CC(C)C1=C2[C@H]3CC[C@@H]4[C@@]5(C)CC[C@H](OC(=O)CC(C)(C)C(=O)O)C(C)(C)[C@@H]5CC[C@@]4(C)[C@]3(C)CC[C@@]2(c2ncc(-c3ccc(Cl)cc3)o2)CC1=O [Compound 65] , can you help?
output: 17.68

----------
Answer each item with its documented TC50 (PM).
Test system: MT-2 cells
test description: Compounds' cytotoxicity assay in MT-2 cells (CellTiter-Glo)
Type: cell-based
Design: unit not given here
conditions: toxicity in MT-2 cells, 3 days
Answers are plain numbers.

// worked examples, TC50 (PM) included
{"molecule": "CC(C)C1=C2[C@H]3CC[C@@H]4[C@@]5(C)CC[C@H](OC(=O)CC(C)(C)C(=O)O)C(C)(C)[C@@H]5CC[C@@]4(C)[C@]3(C)CC[C@@]2(c2nnc(-c3ccc(Cl)cc3)o2)CC1=O [Compound 27-1]", "TC50 (PM)": 50}
{"molecule": "CC(C)C1=C2[C@H]3CC[C@@H]4[C@@]5(C)CC[C@H](OC(=O)CC(C)(C)C(=O)O)C(C)(C)[C@@H]5CC[C@@]4(C)[C@]3(C)CC[C@@]2(c2cc(=O)n(Cc3ccccc3)n2C)CC1 [Compound 89-2]", "TC50 (PM)": 37}
{"molecule": "CC(C)C1=C2[C@H]3CC[C@@H]4[C@@]5(C)CC[C@H](OC(=O)CC(C)(C)C(=O)O)C(C)(C)[C@@H]5CC[C@@]4(C)[C@]3(C)CC[C@@]2(Cc2nnc(-c3ccc(C#N)cn3)o2)CC1=O [Compound 22-15]", "TC50 (PM)": 34}

input: For the molecule CCn1c([C@@]23CC[C@]4(C)[C@H](CC[C@@H]5[C@@]6(C)CC[C@H](OC(=O)CC(C)(C)C(=O)O)C(C)(C)[C@@H]6CC[C@]54C)C2=C(C(C)C)C(=O)C3)cc(=O)n1-c1ccc(Cl)cc1 [Compound 98-5] , what TC50 (PM) is on record?
output: 13

----------
Hi there, I'd appreciate the recorded TC50 (PM) for every entry that follows.
Test system: MT-2 cells
test description: Compounds' cytotoxicity assay in MT-2 cells (CellTiter-Glo)
Assay type: cell-based
Parameters: unit not given here
conditions: toxicity in MT-2 cells, 3 days
Give bare numbers.

{"compound": "CC(C)C1=C2[C@H]3CC[C@@H]4[C@@]5(C)CC[C@H](OC(=O)CC(C)(C)C(=O)O)C(C)(C)[C@@H]5CC[C@@]4(C)[C@]3(C)CC[C@@]2(c2cc(=O)n(-c3ccc(F)cc3)n2C)CC1=O", "TC50 (PM)": 42}
{"compound": "CC(C)C1=C2[C@H]3CC[C@@H]4[C@@]5(C)CC[C@H](OC(=O)CC(C)(C)C(=O)O)C(C)(C)[C@@H]5CC[C@@]4(C)[C@]3(C)CC[C@@]2(c2nnc(Cc3ccc(Cl)cc3)o2)CC1=O", "TC50 (PM)": 100}
{"compound": "CC(C)C1=C2[C@H]3CC[C@@H]4[C@@]5(C)CC[C@H](OC(=O)CC(C)(C)C(=O)O)C(C)(C)[C@@H]5CC[C@@]4(C)[C@]3(C)CC[C@@]2(c2nnc(Nc3ccc(Cl)cc3)o2)CC1=O", "TC50 (PM)": 21}
{"compound": "CC(C)C1=C2[C@H]3CC[C@@H]4[C@@]5(C)CC[C@H](OC(=O)CC(C)(C)C(=O)O)C(C)(C)[C@@H]5CC[C@@]4(C)[C@]3(C)CC[C@@]2(Cc2nnc(-c3ccc(Cl)cc3)n2CCN(C)C)CC1=O", "TC50 (PM)": 35}
{"compound": "CC(C)C1=C2[C@H]3CC[C@@H]4[C@@]5(C)CC[C@H](OC(=O)CC(C)(C)C(=O)O)C(C)(C)[C@@H]5CC[C@@]4(C)[C@]3(C)CC[C@@]2(Cc2nnc(-c3ccc(C(F)(F)F)cn3)o2)CC1=O", "TC50 (PM)": 31}

List TC50 (PM) for every entry below, keeping the order given.
1. CC(C)C1=C2[C@H]3CC[C@@H]4[C@@]5(C)CC[C@H](OC(=O)CC(C)(C)C(=O)O)C(C)(C)[C@@H]5CC[C@@]4(C)[C@]3(C)CC[C@@]2(Nc2nnc(-c3ccc(Cl)cn3)o2)CC1=O
2. CNC(=O)Cn1c(=O)cc([C@@]23CC[C@]4(C)[C@H](CC[C@@H]5[C@@]6(C)CC[C@H](OC(=O)CC(C)(C)C(=O)O)C(C)(C)[C@@H]6CC[C@]54C)C2=C(C(C)C)C(=O)C3)n1C
3. CC(C)C1=C2[C@H]3CC[C@@H]4[C@@]5(C)CC[C@H](OC(=O)CC(C)(C)C(=O)O)C(C)(C)[C@@H]5CC[C@@]4(C)[C@]3(C)CC[C@@]2(c2nnc(-c3ncc(Cl)cn3)o2)CC1=O

output:
[24, 68, 46]

# map each compound to its TC50 (PM)
1. CC(C)C1=C2[C@H]3CC[C@@H]4[C@@]5(C)CC[C@H](OC(=O)CC(C)(C)C(=O)O)C(C)(C)[C@@H]5CC[C@@]4(C)[C@]3(C)CC[C@@]2(c2cc(=O)n(Cc3ccc(Cl)cc3)n2C)CC1=O [Compound 91-1]
2. CC(C)C1=C2[C@H]3CC[C@@H]4[C@@]5(C)CC[C@H](OC(=O)CC(C)(C)C(=O)O)C(C)(C)[C@@H]5CC[C@@]4(C)[C@]3(C)CC[C@@]2([C@@H](O)c2nnc(-c3ccc(Cl)cn3)o2)CC1=O
3. CC(C)C1=C2[C@H]3CC[C@@H]4[C@@]5(C)CC[C@H](OC(=O)CC(C)(C)C(=O)O)C(C)(C)[C@@H]5CC[C@@]4(C)[C@]3(C)CC[C@@]2(Cc2cc(=O)n(-c3ccc(Cl)cc3)n2C)CC1=O
4. CC(C)C1=C2[C@H]3CC[C@@H]4[C@@]5(C)CC[C@H](OC(=O)CC(C)(C)C(=O)O)C(C)(C)[C@@H]5CC[C@@]4(C)[C@]3(C)CC[C@@]2(Cc2nnc(-c3ccccc3)o2)CC1=O

output:
41
33
62
28

Fill in TC50 (PM) for each of the 5 compounds listed.
1. CC(C)C1=C2[C@H]3CC[C@@H]4[C@@]5(C)CC[C@H](OC(=O)CC(C)(C)C(=O)O)C(C)(C)[C@@H]5CC[C@@]4(C)[C@]3(C)CC[C@@]2(Cc2nnc(-c3ccc(Cl)cn3)o2)CC1=O
2. CC(C)C1=C2[C@H]3CC[C@@H]4[C@@]5(C)CC[C@H](OC(=O)CC(C)(C)C(=O)O)C(C)(C)[C@@H]5CC[C@@]4(C)[C@]3(C)CC[C@@]2(c2nnc(-c3ccc(Cl)cc3)s2)CC1=O
3. CC(C)C1=C2[C@H]3CC[C@@H]4[C@@]5(C)CC[C@H](OC(=O)CC(C)(C)C(=O)O)C(C)(C)[C@@H]5CC[C@@]4(C)[C@]3(C)CC[C@@]2(c2nnc(N(CCN(C)C)c3ccc(Cl)cc3)o2)CC1=O
4. CC(C)C1=C2[C@H]3CC[C@@H]4[C@@]5(C)CC[C@H](OC(=O)CC(C)(C)C(=O)O)C(C)(C)[C@@H]5CC[C@@]4(C)[C@]3(C)CC[C@@]2(Cc2nnc(-c3ncc(Cl)cn3)o2)CC1=O
5. CC(C)C1=C2[C@H]3CC[C@@H]4[C@@]5(C)CC[C@H](OC(=O)CC(C)(C)C(=O)O)C(C)(C)[C@@H]5CC[C@@]4(C)[C@]3(C)CC[C@@]2(c2cnc(-c3ccc(Cl)cc3)o2)CC1=O

output:
1. 36
2. 9.93
3. 47
4. 39
5. 200
